Recorded values, source patent US20260317324A1.

Target: BRAF G466V (Homo sapiens, UniProt P15056, G466V)
Construct: Horizon Discovery (HCT-116 BRAF−/− cells); host or cells: HCT-116 BRAF−/− cells, clone 8, lentiviral transduction
Sequence (P15056 whole entry G466V): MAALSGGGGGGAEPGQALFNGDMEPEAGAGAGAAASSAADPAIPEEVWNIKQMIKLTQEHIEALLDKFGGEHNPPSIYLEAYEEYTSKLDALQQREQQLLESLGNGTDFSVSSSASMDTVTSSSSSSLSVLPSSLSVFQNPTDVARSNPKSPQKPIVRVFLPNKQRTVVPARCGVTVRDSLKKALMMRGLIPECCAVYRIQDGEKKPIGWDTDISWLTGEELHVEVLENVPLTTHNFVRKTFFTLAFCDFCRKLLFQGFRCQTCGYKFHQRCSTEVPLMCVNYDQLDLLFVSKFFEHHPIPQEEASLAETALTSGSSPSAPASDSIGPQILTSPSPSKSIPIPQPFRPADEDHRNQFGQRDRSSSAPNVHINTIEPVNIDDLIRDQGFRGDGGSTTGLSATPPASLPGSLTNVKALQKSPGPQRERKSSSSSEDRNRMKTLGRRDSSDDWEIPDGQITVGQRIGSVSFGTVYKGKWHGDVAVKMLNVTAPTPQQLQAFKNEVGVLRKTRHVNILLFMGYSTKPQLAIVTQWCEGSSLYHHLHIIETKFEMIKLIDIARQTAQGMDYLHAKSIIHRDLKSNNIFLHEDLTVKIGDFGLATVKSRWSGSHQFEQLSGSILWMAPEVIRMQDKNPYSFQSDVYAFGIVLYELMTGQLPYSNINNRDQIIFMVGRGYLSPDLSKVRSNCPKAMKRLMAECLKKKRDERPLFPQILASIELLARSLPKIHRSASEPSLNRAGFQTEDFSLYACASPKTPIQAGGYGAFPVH
Assay: BRAF HiBiT degradation assay, C-terminal HiBiT-tagged BRAF G466V overexpressed in HCT-116 BRAF−/− cells (clone 8), Nano-Glo HiBiT Lytic assay
Type: cell-based
Conditions: BRAF G466V; DC50 at 50%: fitted conc. at Y=50
Overview of recorded DC50 for various molecules

# count of solved cases: 3
>>> result("CCCS(=O)(=O)Nc1cccc(-c2nc(C3CCN(C(=O)C4CCN(CC5CCN(c6ccc(C7CCC(=O)NC7=O)cn6)CC5)CC4)CC3)sc2-c2ccncn2)c1F (racemic)")
"> 500 nM"
>>> result("CCCS(=O)(=O)Nc1cccc(-c2cn(-c3ccc(N4CCN(CC5CCN(c6ccc([C@@H]7CCC(=O)NC7=O)cc6)CC5)CC4)cc3)nc2-c2ccncc2)c1F")
"10 to 50 nM"
>>> result("CCCS(=O)(=O)Nc1cccc(-c2cn(-c3ccc(C4CCN(CC5CCN(c6ccc(C7CCC(=O)NC7=O)c(F)c6)CC5)CC4)cc3)nc2-c2ccncc2)c1F (racemic)")
"10 to 50 nM"

Now look at this one.
Request: Which measured DC50 value corresponds to CCCS(=O)(=O)Nc1cccc(-c2nc(-c3ccc(C4CCN(CC5CCN(c6ccc([C@@H]7CCC(=O)NC7=O)cc6)CC5)CC4)cc3)sc2-c2ccnc(N)n2)c1F ?
Response: > 500 nM
